Measured GI50 by item
Tested on: DLD-1
Experiment: NCI tumour cell line growth inhibition, 48 h
Calls of active or inactive are those of the source. No stated cut-off is given here; in the data, active = GI50 up to about 1.1 µM and inactive = higher.
measurement-type: GI50

1. CCOC(=O)C(Cc1ccccc1)NC(=O)c1nc[nH]c1/N=N/N(C)C (stereo unspecified)	> 100 µM (inactive)
2. COC1=C(OC)C(=O)c2cc(SC)c(=O)c(SC)cc2C1=O	28.4 µM (inactive)
3. CC1=N/C(=C\c2ccc([N+](=O)[O-])cc2)C(=O)O1	> 100 µM (inactive)
4. CCOP(=O)(OCC)C(C(=O)OC)C(=O)C(=O)Nc1ccc(Cl)cc1Cl (stereo unspecified)	> 100 µM (inactive)
5. O=C1NC2OCC(O)C(O)C2O1 (stereo unspecified)	> 100 µM (inactive)
6. CC1=Nn2c(nnc2-c2ccc(N)cc2)NC(C)(C)C1	> 100 µM (inactive)

Values from ChEMBL document CHEMBL1201862
